target: UniProt Q07817; test: Binding affinity to Bcl-XL by fluorescence polarization assay
Sequence (Q07817 whole entry): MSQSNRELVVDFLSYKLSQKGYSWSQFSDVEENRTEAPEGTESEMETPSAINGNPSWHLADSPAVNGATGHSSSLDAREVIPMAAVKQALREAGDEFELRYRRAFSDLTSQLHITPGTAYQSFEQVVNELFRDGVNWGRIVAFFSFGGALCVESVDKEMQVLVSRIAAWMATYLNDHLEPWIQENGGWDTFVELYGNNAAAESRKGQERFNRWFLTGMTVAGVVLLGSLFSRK
ENDPOINT_NAME: Ki

Look up Ki: `COc1cc(CCCN2CCOCC2)ccc1-c1ccc(C(=O)NS(=O)(=O)c2ccc(N[C@H](CCN3CCOCC3)CSc3ccccc3)c([N+](=O)[O-])c2)cc1`
< 500 pM

Look up Ki: `COc1cc(CCCN2CCOCC2)ccc1-c1ccc(C(=O)NS(=O)(=O)c2ccc(N[C@H](CCCCN(C)C)CSc3ccccc3)c([N+](=O)[O-])c2)cc1`
< 500 pM

Look up Ki: `COc1cc(CCCN2CCOCC2)ccc1-c1ccc(C(=O)NS(=O)(=O)c2ccc(N[C@H](CCN(C)C)CSc3ccccc3)c([N+](=O)[O-])c2)cc1`
< 500 pM
